tested on: 628569-122-R-J1-PDC complex spheroid viability; assay: Anticancer human tumor 628569-122-R-J1-PDC patient-derived head and neck squamous carcinoma cell line growth inhibition [CLK]; details: second compound 0.316 µM; first compound 0.0316 µM; active compounds read low
Entries whose viability, T/C is below 50% take t; entries at or above 50% take f.

compound: C=CC(=O)N1CCN(c2nc(=O)n(-c3c(C)ccnc3C(C)C)c3nc(-c4c(O)cccc4F)c(F)cc23)C(C)C1 (stereo not given) + CNC(=O)c1ccc(Nc2nc(OC3CCCC3)c3c(-c4ccc5nc(C)oc5c4)c[nH]c3n2)c(OC)c1
subject-of-test: 628569-122-R-J1-PDC complex spheroid viability
label: f

compound: CC1COCCN1c1cc(C2(S(C)(=N)=O)CC2)nc(-c2ccnc3[nH]ccc23)n1 (stereo not given) + CNC(=O)c1ccc(Nc2nc(OC3CCCC3)c3c(-c4ccc5nc(C)oc5c4)c[nH]c3n2)c(OC)c1
subject-of-test: 628569-122-R-J1-PDC complex spheroid viability
label: t

compound: C#Cc1c(F)ccc2cc(O)cc(-c3ncc4c(N5CC6CCC(C5)N6)nc(OCC56CCCN5CC(F)C6)nc4c3F)c12 (stereo not given) + CNC(=O)c1ccc(Nc2nc(OC3CCCC3)c3c(-c4ccc5nc(C)oc5c4)c[nH]c3n2)c(OC)c1
subject-of-test: 628569-122-R-J1-PDC complex spheroid viability
label: f

compound: CCc1c2c(nc3ccc(O)cc13)-c1cc3c(c(=O)n1C2)COC(=O)[C@]3(O)CC + CN1CCN(c2cc(C(=O)Nc3cc4cc(-c5cnn(C)c5)ccc4cn3)ccn2)CC1
subject-of-test: 628569-122-R-J1-PDC complex spheroid viability
label: t

compound: Nc1ccn(C2OC(CO)C(O)C2(F)F)c(=O)n1 (stereo not given) + CN1CCN(c2cc(C(=O)Nc3cc4cc(-c5cnn(C)c5)ccc4cn3)ccn2)CC1
subject-of-test: 628569-122-R-J1-PDC complex spheroid viability
label: t

* * *

system: 628569-122-R-J1-PDC complex spheroid viability; test: Anticancer human tumor 628569-122-R-J1-PDC cell line growth inhibition [CLK]; conditions: second compound 0.0316 µM; first compound 3.16 µM; active compounds read low;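 note: spheroids exposed to agents for seven days before readout; 100% = DMSO vehicle control viability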
viability, T/C values, listed per item

compound: CCCS(=O)(=O)Nc1ccc(F)c(C(=O)c2c[nH]c3ncc(-c4ccc(Cl)cc4)cc23)c1F + CN1CCN(c2cc(C(=O)Nc3cc4cc(-c5cnn(C)c5)ccc4cn3)ccn2)CC1
viability, T/C / %: 91.7
//
compound: CCCS(=O)(=O)Nc1ccc(F)c(C(=O)c2c[nH]c3ncc(-c4ccc(Cl)cc4)cc23)c1F + CNC(=O)c1ccc(Nc2nc(OC3CCCC3)c3c(-c4ccc5nc(C)oc5c4)c[nH]c3n2)c(OC)c1
viability, T/C / %: 91
//
compound: C=CC(=O)N1CCN(c2nc(=O)n(-c3c(C)ccnc3C(C)C)c3nc(-c4c(O)cccc4F)c(F)cc23)C(C)C1 (stereo not drawn) + CNC(=O)c1ccc(Nc2nc(OC3CCCC3)c3c(-c4ccc5nc(C)oc5c4)c[nH]c3n2)c(OC)c1
viability, T/C / %: 127

* * *

test system: 628569-122-R-J1-PDC complex spheroid viability; test: Anticancer human tumor 628569-122-R-J1-PDC cell line growth inhibition [CLK]; conditions: second compound 10 µM; first compound 0.00949 µM; active compounds read low;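 note: spheroids exposed to agents for seven days before readout; 100% = DMSO vehicle control viability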
Yes if viability, T/C is below 9%. No if not; exact matches included in No.

molecule: NC(=O)C(=Cn1cnc(-c2cc(C(F)(F)F)cc(C(F)(F)F)c2)n1)c1cncnc1 + CNC(=O)c1ccc(Nc2nc(OC3CCCC3)c3c(-c4ccc5nc(C)oc5c4)c[nH]c3n2)c(OC)c1
label: No
//
molecule: C=CC(=O)Nc1cc(Nc2nccc(-c3cn(C)c4ccccc34)n2)c(OC)cc1N(C)CCN(C)C + CNC(=O)c1ccc(Nc2nc(OC3CCCC3)c3c(-c4ccc5nc(C)oc5c4)c[nH]c3n2)c(OC)c1
label: No
//
molecule: C=CC(=O)Nc1cc(Nc2nccc(-c3cn(C)c4ccccc34)n2)c(OC)cc1N(C)CCN(C)C + CN1CCN(c2cc(C(=O)Nc3cc4cc(-c5cnn(C)c5)ccc4cn3)ccn2)CC1
label: Yes
//
molecule: CC(C)CC(NC(=O)C(Cc1ccccc1)NC(=O)c1cnccn1)B(O)O (stereo unspecified) + CN1CCN(c2cc(C(=O)Nc3cc4cc(-c5cnn(C)c5)ccc4cn3)ccn2)CC1
label: Yes
//
molecule: NC(=O)C(=Cn1cnc(-c2cc(C(F)(F)F)cc(C(F)(F)F)c2)n1)c1cncnc1 + CN1CCN(c2cc(C(=O)Nc3cc4cc(-c5cnn(C)c5)ccc4cn3)ccn2)CC1
label: Yes

The values you see were collected from PubChem BioAssay AID2060611.
